Answer each item with its documented IC50.
Tested on: HCC1954
Assay: Viability assay, BRCA1 WT cell line HCC1954
Format: cell-based
Settings: Homo sapiens, HCC1954, viability, read-out: HCC1954 rel IC50

These recorded examples may help you get a feel for the data.
COc1ncnc(C2CC2)c1-c1ncc2c(n1)n(Cc1ccc(-c3nc(C(F)(F)F)cn3C3CCC3)cc1)c(=N)n2CC(F)(F)F [Example T-120]; ≥ 10 µM
COc1ncncc1-c1ncc2c(n1)n(Cc1ccc(-c3nc(C(F)(F)F)cn3C)cc1)c(=N)n2C [Example T-058]; ≥ 10 µM
CC(C)c1ccccc1-c1nc(Cl)c2c(n1)n(Cc1ccc(-c3nc(C(F)(F)F)cn3C)cc1)c(=N)n2C (single isomer, unassigned) [Example A-22a]; 0.25 to 10 µM

Give the value of IC50 reported for the following: COc1cc(C(F)(F)F)nn1-c1ccc(Cn2c(=N)n(C)c3cnc(-c4ccccc4C(F)(F)F)nc32)cn1 [Example T-055]
≥ 10 µM

----------
System: HCC1954
Assay: Viability assay, BRCA1 WT cell line HCC1954
Type: cell-based
Conditions: Homo sapiens, HCC1954, viability, read-out: HCC1954 rel IC50
measurement_name: IC50

// known answers, use as guide
CC(C)c1ccccc1-c1nc(C2CC2)c2c(n1)n(Cc1ccc(-c3nc(C(F)(F)F)cn3C)cc1)c(=N)n2C [Example A-23]; 0.25 to 10 µM
COc1ncccc1-c1ncc2c(n1)n(Cc1ccc(-c3nc(C(F)(F)F)cn3C)cc1)c(=N)n2C [Example T-090]; ≥ 10 µM

Return reported IC50 values for all items listed beneath this line.
1. CNc1ncccc1-c1ncc2c(n1)n(Cc1ccc(-c3nc(C(F)(F)F)cn3C)cc1)c(=N)n2C [Example T-075]
2. COc1ncnc(C2CC2)c1-c1ncc2c(n1)n(Cc1ccc(-c3nc(C(F)(F)F)sc3C)cc1)c(=N)n2CC(F)(F)F [Example T-128]
3. Cn1cc(C(F)(F)F)nc1-c1ccc(Cn2c(=N)n(C)c3cnc(-c4ccccc4Cl)nc32)cc1 [Example B-8]

0.25 to 10 µM
0.25 to 10 µM
≥ 10 µM
